targetOrTestSystem: biotinylated (prokaryotic) IL-6 (Homo sapiens, UniProt P05231)
Sequence (P05231 30-212): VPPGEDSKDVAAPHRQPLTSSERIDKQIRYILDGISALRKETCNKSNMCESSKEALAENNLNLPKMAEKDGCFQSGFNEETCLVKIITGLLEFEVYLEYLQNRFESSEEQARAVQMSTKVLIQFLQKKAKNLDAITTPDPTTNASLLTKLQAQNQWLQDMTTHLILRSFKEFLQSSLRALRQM
experimentalProtocol: Surface plasmon resonance (Biacore), biotinylated IL-6 captured on streptavidin sensor chip
Type: binding
conditionParameters: purified Fab
propertyLabel: Rmax (RU)
Give the number; RU is assumed, so skip it.

Query: Read off the recorded Rmax for 18F8: antagonistic IL-6-specific Fab clone from immunized llama (antibody, listed as Lama glama, V domains shown) VH: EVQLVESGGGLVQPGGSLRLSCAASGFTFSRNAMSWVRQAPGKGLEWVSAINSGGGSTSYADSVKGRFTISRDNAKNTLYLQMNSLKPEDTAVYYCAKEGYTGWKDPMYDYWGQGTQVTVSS VL: QSALTQPSALSVTLGQTAKITCQGGSLGSRYAHWYQQKPGQAPVLVIYDDDSRPSGIPERFSGSSSGGRATLTISGAQAEDEGDYYCQSADTSEHIVFGGGTHLTVLG
Response: 51.5

Query: Report Rmax for 29B11: antagonistic IL-6-specific Fab clone from immunized llama (antibody, listed as Lama glama, V domains shown) VH: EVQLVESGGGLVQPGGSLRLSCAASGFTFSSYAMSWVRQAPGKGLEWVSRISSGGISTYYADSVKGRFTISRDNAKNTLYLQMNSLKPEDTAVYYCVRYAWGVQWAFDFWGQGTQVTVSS VL: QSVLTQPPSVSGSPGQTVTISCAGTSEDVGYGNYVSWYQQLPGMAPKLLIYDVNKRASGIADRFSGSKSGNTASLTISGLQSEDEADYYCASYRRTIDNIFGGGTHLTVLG
Response: 23.3

Query: Dear colleague, please send me the reported Rmax for 28C6: antagonistic IL-6-specific Fab clone from immunized llama (antibody, listed as Lama glama, V domains shown) VH: QVQLVESGGGLVQPGGSLRLSCAASGFTFSNYYMTWVRQAPGKGLEWVSSIYSFSGDTAYADSVKGRFTISRDNAKNTLYLQMNKLKSEDTAVYYCTRDLGGVVVTANGYDYWGQGTQVTVSS VL: DIVMTQTPSSLSASLGDRVTITCQASQSISTELSWYQQKPGQTPKLLIYGASRLQTGVPARFSGSGSGTSFTLTISGLEAEDLATYYCLQDYSWPYSFGSGTRL when you can.
Response: 22.6

Query: Provide one value: measured Rmax of 18C11: antagonistic IL-6-specific Fab clone from immunized llama (antibody, listed as Lama glama, V domains shown) VH: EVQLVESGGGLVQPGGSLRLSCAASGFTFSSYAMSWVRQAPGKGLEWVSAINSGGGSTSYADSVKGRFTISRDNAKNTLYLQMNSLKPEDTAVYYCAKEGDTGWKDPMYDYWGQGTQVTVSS VL: QSVVTQPSALSVTLGQTAKITCQGGGLRSSYAHWYQQKPGQAPVLVIYDDDSRPSGIPERFSGSSSGGRATLTISGAQAEDEGDYYCQSADSSGNAAVFGGGTHLTVLG
Response: 22.1
